# key: entry, value: IC50
Tested on: HL-60
Assay: Antiproliferative activity against human HL60 cells
Assay type: functional, cell-based

Smiles text | Qualifier sign | IC50 / nM
COc1cc(-c2nnsc2-c2ccc([N+](=O)[O-])cc2)cc(OC)c1OC | > | 1000
COc1ccc(-c2nnsc2-c2cc(OC)c(OC)c(OC)c2)cc1[N+](=O)[O-] | > | 1000
COc1cc(-c2snnc2-c2ccc([N+](=O)[O-])cc2)cc(OC)c1OC | > | 1000
COc1ccc(-c2snnc2-c2cc(OC)c(OC)c(OC)c2)cc1N | = | 1.8
COc1ccc(-c2nnsc2-c2cc(OC)c(OC)c(OC)c2)cc1N | > | 1000
COc1cc(-c2nnsc2-c2ccc(Cl)cc2)cc(OC)c1OC | = | 23.6
COc1ccc(-c2nnsc2-c2cc(OC)c(OC)c(OC)c2)cc1 | = | 537
